Test system: IL-1β release upon NLRP3 activation in peripheral blood mononuclear cells (PBMC)
Experiment: PBMC IC50 determination assay: inhibition of IL-1β release upon NLRP3 activation
Assay type: cell-based
Details: PBMC, PBMC primed with LPS 3 h, compound 30 min, stimulated with ATP (5 mM) or nigericin (10 μM) 1 h; IL-1β by ELISA (Protocol A) or HTRF (Protocol B)
pIC50: −log10 of the molar value.
MEASURED_PROPERTY: pIC50

INSERT INTO assay_data (compound, experimental_system, measured_property, recorded_result) VALUES
  ('CNc1cc2c(C(C)C)nn(CC(=O)Nc3ncccn3)c(=O)c2s1 [Compound 94]', 'IL-1β release upon NLRP3 activation in peripheral blood mononuclear cells (PBMC)', 'pIC50', '≥ 7.00'),
  ('CC(C)c1nn(CC(=O)N[C@@H]2CCCN(C3CCC3)C2)c(=O)c2sc(Br)cc12 [Compound 29]', 'IL-1β release upon NLRP3 activation in peripheral blood mononuclear cells (PBMC)', 'pIC50', '6.00 to 7.00'),
  ('CCNc1cc2c(C)nn(CC(=O)Nc3ncccn3)c(=O)c2s1 [Compound 98]', 'IL-1β release upon NLRP3 activation in peripheral blood mononuclear cells (PBMC)', 'pIC50', '5.52 to 6.00'),
  ('CC(C)c1nn(CC(=O)Nc2ncc(F)cn2)c(=O)c2sc(Cl)nc12 [Compound 61]', 'IL-1β release upon NLRP3 activation in peripheral blood mononuclear cells (PBMC)', 'pIC50', '5.52 to 6.00'),
  ('Cc1nc(NC(=O)Cn2nc(C(C)C)c3nc(C4CC4)ccc3c2=O)ns1 [Compound 26]', 'IL-1β release upon NLRP3 activation in peripheral blood mononuclear cells (PBMC)', 'pIC50', '6.00 to 7.00');

Data provenance: patent US20250066369A1
